Tested on: OVCAR-4 ovarian
Assay: NCI tumour cell line growth inhibition, 48 h; in the data active = GI50 below about 0.43 µM; inactive = the rest
Reply using exactly one outcome from TRUE for active, FALSE for inactive

COMPOUND: c1ccc2c(c1)nc(NCCN1CCNCC1)c1c3ccccc3[nH]c21
CATEGORY: TRUE

Query block: Fill in: this test's call for `COc1ccccc1Cn1cc2c(c1)-c1oncc1CC2` is ___
Result block: FALSE

Query block: Fill in: this test's call for COc1cc(C2C3=C(COC3=O)N(CCO)c3cc4c(cc32)CCC4)cc(OC)c1O (stereo unspecified) is ___
Result block: TRUE

Query block: Fill in: this test's call for COc1ccccc1C1C(C#N)=C(N)OC2=C1C(=O)CCC2 (stereo unspecified) is ___
Result block: FALSE

Query block: Fill in: this test's call for `Oc1ccc2ccccc2c1-c1nnc(CCCCCCCCc2nnc(-c3c(O)ccc4ccccc34)o2)o1` is ___
Result block: FALSE

Query block: Fill in: this test's call for `O=c1oc(-c2ccc(O)c(O)c2)cc2cc(O)cc(O)c12` is ___
Result block: FALSE
